- Experimental Target: mitochondrial calcium uniporter (MCU) (Homo sapiens, UniProt Q8NE86)
- Protocol: mCa2+ uptake inhibition in digitonin-permeabilized HEK293T cells
- Assay type: cell-based
pIC50: −log10 of the molar value.
Measured pIC50 accompanies every entry in the list below.
Experimental Endpoint: pIC50

Molecule: NC12CNCCNCC(N)(CNCCNC1)CNCCNC2.[Co+3] [Compound 2, [Co(diAMsar)]^3+]
Experimental Endpoint: pIC50
Comparative Sign: <
Recorded Number: 4.60

Molecule: O=[N+]([O-])C12CNCCNCC([N+](=O)[O-])(CNCCNC1)CNCCNC2.[Co+3] [Compound 1, [Co(diNOsar)]^3+]
Experimental Endpoint: pIC50
Comparative Sign: =
Recorded Number: 5.10

Molecule: CC12CNCCNCC(C(=O)O)(CNCCNC1)C(=O)NCCNC2.[Co+3] [Compound 6, [Co(CO2H,Mesar)]^2+]
Experimental Endpoint: pIC50
Comparative Sign: <
Recorded Number: 4.60

Molecule: CC(CNCCN)(CNCCN)CNCCN.[Co+3] [Compound 3, [Co(sen)]^3+]
Experimental Endpoint: pIC50
Comparative Sign: =
Recorded Number: 6.74

Molecule: CCOC(=O)C12CNCCNCC(C)(CNCCNC1)CNCCNC2=O.[Co+3] [Compound 5, [Co(CO2Et,Mesar)]^2+]
Experimental Endpoint: pIC50
Comparative Sign: <
Recorded Number: 4.60

Molecule: CC12CNCCNCC([N+](=O)[O-])(CNCCNC1)CNCCNC2.[Co+3] [Compound 4, [Co(MeNOsar)]^3+]
Experimental Endpoint: pIC50
Comparative Sign: =
Recorded Number: 5.56

###

- Protocol: Cytotoxicity, MTT assay, HeLa cells
- Type: cell-based
- Study Conditions: human

Molecule: NC12CNCCNCC(N)(CNCCNC1)CNCCNC2.[Co+3] [Compound 2, [Co(diAMsar)]^3+]
viability at 72 h, 1000 µM: 40%

###

- Experimental Target: mitochondrial calcium uniporter (MCU) (Homo sapiens, UniProt Q8NE86)
- Sequence (Q8NE86 51-351): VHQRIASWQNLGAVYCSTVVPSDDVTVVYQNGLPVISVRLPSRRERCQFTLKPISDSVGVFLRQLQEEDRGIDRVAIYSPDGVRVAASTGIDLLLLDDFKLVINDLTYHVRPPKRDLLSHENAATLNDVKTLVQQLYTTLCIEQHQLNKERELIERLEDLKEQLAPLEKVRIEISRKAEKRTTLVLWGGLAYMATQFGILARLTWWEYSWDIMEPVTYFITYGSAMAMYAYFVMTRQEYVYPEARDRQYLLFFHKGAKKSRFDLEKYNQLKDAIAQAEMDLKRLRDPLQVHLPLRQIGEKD
- Sequence (Q9H4I9 48-107 partner limits assumed): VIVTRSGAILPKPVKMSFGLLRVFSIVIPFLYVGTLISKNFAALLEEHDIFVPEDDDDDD
- Protocol: mCa2+ uptake inhibition in digitonin-permeabilized HeLa cells
- Format: cell-based
Experimental Endpoint: IC50 (µM)

Molecule: CC12CNCCNCC([N+](=O)[O-])(CNCCNC1)CNCCNC2.[Co+3] [Compound 4, [Co(MeNOsar)]^3+]
Comparative Sign: =
Recorded Number: 2.91
--
Molecule: NC12CNCCNCC(N)(CNCCNC1)CNCCNC2.[Co+3] [Compound 2, [Co(diAMsar)]^3+]
Comparative Sign: >
Recorded Number: 25
--
Molecule: CC(CNCCN)(CNCCN)CNCCN.[Co+3] [Compound 3, [Co(sen)]^3+]
Comparative Sign: =
Recorded Number: 0.16
--
Molecule: O=[N+]([O-])C12CNCCNCC([N+](=O)[O-])(CNCCNC1)CNCCNC2.[Co+3] [Compound 1, [Co(diNOsar)]^3+]
Comparative Sign: =
Recorded Number: 6.05
--
Molecule: CC12CNCCNCC(C(=O)O)(CNCCNC1)C(=O)NCCNC2.[Co+3] [Compound 6, [Co(CO2H,Mesar)]^2+]
Comparative Sign: >
Recorded Number: 25
--
Molecule: CCOC(=O)C12CNCCNCC(C)(CNCCNC1)CNCCNC2=O.[Co+3] [Compound 5, [Co(CO2Et,Mesar)]^2+]
Comparative Sign: >
Recorded Number: 25
